These data points were gathered from paper PMC8891364.

# Tested on: Caco-2 cells
# test method notes: MTT antitumor assay, colon carcinoma cells
# Format: cell-based
# experimental parameters: ratio of IC50 of normal cells (HFB-4) versus IC50 of tumor cells
# SI Caco-2 per entry
reported endpoint: SI Caco-2

>>> result("CCOC(=O)C1=C2N=C(N3NC4=C(CCCC4)C3c3ccccc3)SC2C(=S)S1 (stereo not drawn)")
"11.04 ± 0.05"
>>> result("NS(=O)(=O)c1ccc(Nc2csc(N3NC4=C(CCCC4)C3c3ccccc3)n2)cc1 (stereo not drawn)")
"18.28 ± 0.25"
>>> result("N#Cc1c(N)sc2sc(N3NC4=C(CCCC4)C3c3ccccc3)nc12 (stereo not drawn)")
"12.87 ± 0.32"
>>> result("N#CCc1nn(N)c2nc(N3NC4=C(CCCC4)C3c3ccccc3)sc12 (stereo not drawn)")
"26.08 ± 0.30"
>>> result("N=C1CC(=O)Oc2nc(N3NC4=C(CCCC4)C3c3ccccc3)sc21 (stereo not drawn)")
"11.39 ± 0.67"
>>> result("N#CC1=C(N)N(c2ccc(S(N)(=O)=O)cc2)c2nc(N3NC4=C(CCCC4)C3c3ccccc3)sc2C1c1ccccc1 (stereo not drawn)")
"7.18 ± 0.20"
